assay-target: T1, bacterially produced human IL-6 (human, UniProt P05231 30-212)
T1 construct: also called bactIL-6; prokaryotic IL-6
test-method-notes: SPR; purified Fab; IL-6 coated on CM5 chip;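 also: dissociation rate taken from the wash phase, association rate fitted over the injection phase with analyte concentration and dissociation rate as inputs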
measurement-label: pKd
Reminder that pKd means the negative base-10 logarithm of the concentration expressed in mol/L.

[[record]]
binder = "Fab 24C9 (Fab, V domains shown, Fab) VH: QVQLVESGGGLVQPGGSLRLSCAASGFTFSSYRMYWVRQPPGKGLEWVSAISAGGGSTYYGDSVKGRFTISRDNAKNTVYLQMNSLKPEDTALYYCKKSTWADGESDYWGQGTQVTVSS VL: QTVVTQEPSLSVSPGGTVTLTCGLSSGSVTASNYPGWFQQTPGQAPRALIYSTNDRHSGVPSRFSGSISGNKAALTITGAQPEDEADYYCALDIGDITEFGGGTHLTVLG"
assay_result = 8.59


Please turn your attention to the following entry.
Value of measured pKd for the entry Fab 17F10 (Fab, V domains shown, Fab; also called 17F10 pur Fab 68 nM) VH: EVQLQESGPGLVKPSQTLSLTCTVSGGSIATSYYAWSWIRQPPGKGLEWMGVIDYDGDTYYKPSLKSRTSISRDTSKNQFSLQLSSVTPEDTAVYYCARAGLGDSYYLGTYYAMDYWGKGTLVTVSS VL: QAGLTQPPSVSGSPGKTVTISCAGTTSDVGTGNFVSWYQQLPGMAPKLLIYDVNKRASGIADRFSGSKSGNTASLTISGLQSEDEADYYCASYRSLNNVVFGGGTHLTVLG : 7.37
